Target: Carnitine O-palmitoyltransferase 1, liver isoform (Rattus norvegicus, UniProt P32198)
Sequence (P32198 whole entry, canonical isoform): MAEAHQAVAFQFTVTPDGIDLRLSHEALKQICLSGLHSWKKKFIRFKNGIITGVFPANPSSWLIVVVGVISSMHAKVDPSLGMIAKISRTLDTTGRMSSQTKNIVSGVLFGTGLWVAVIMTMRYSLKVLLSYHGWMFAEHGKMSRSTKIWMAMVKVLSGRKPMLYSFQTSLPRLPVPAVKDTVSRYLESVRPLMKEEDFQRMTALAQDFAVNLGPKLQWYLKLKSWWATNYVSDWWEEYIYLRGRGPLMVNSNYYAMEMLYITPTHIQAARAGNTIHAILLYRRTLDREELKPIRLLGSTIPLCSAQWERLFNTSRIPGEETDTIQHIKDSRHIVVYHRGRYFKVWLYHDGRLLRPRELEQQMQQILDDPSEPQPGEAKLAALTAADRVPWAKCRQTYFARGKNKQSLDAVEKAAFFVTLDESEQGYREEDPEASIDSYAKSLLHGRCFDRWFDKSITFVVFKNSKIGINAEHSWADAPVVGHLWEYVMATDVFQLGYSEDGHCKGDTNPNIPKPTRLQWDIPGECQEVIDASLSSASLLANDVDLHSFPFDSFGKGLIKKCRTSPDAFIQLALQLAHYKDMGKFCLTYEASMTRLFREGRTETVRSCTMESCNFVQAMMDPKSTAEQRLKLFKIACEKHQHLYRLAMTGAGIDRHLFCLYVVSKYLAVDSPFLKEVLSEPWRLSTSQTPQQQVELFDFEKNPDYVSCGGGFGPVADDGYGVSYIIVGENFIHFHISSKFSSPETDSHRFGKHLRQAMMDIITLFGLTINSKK
Assay: SUPPLEMENTARY: Inhibition of Carnitine palmitoyltransferase 1, liver isoform
test readout: IC50 (µM)

Consider the reported IC50 for these molecules:
COC(=O)c1cccc(-c2csc([C@H]3CCCCN3C(=O)COc3ccccc3)n2)n1	0.172
Nc1cccc(-c2nc([C@H]3CCCCN3C(=O)COc3ccccc3)no2)n1	0.255
O=C1CCN1c1cccc(-c2n[nH]c([C@H]3CCCCN3C(=O)COc3ccccc3)n2)c1	0.316
O=C(COc1ccccc1)N1CCCC[C@@H]1c1nc(-c2cccc(B(O)O)c2)no1	0.205

[A] CS(=O)(=O)c1ccc(-c2csc([C@H]3CCCCN3C(=O)COc3ccccc3)n2)cc1
[B] O=C(Nc1ccc(C(=O)O)c(F)c1)c1ccc2c(c1)N(S(=O)(=O)c1cccc(Cl)c1)CCO2
Q) Of A and B , whose reported IC50 is the larger number? Mark your answer with the label of the selected entry.
A) A
(A: 0.327 µM, B: 0.0723 µM)

----------
Target: Carnitine O-palmitoyltransferase 1, liver isoform (Homo sapiens)
Assay: SUPPLEMENTARY: Inhibition of Carnitine palmitoyltransferase 1, liver isoform
test readout: IC50 (nM)

O=C1COc2cc(C#C[C@H]3CCCCN3C(=O)COc3ccccc3)ccc2N1	154

[a] O=C(O)c1ccc(NC(=O)c2ccc(Cl)c(NS(=O)(=O)c3cc(Cl)cc(Cl)c3)c2)cc1
[b] Cc1nnsc1-c1noc([C@H]2CCCCN2C(=O)COc2ccccc2)n1
[c] Cc1cc(C)cc(S(=O)(=O)c2n[nH]c3ccc(C(=O)Nc4ccc(C(=O)O)cc4)cc23)c1
Q) Your job: order these 3 records by IC50, ascending. Reply format: the labels, ordered as requested.
A) c, a, b
(c: 51.2 nM, a: 86.1 nM, b: 293 nM)

[a] N#Cc1ccc(C#C[C@H]2CCCCN2C(=O)COc2ccccc2)cc1
[b] COc1ccc(Cl)cc1S(=O)(=O)c1cn(C)c2ccc(C(=O)Nc3ccc(C(=O)O)cc3)cc12
Q) Smaller IC50 value? Options are a and b # answer = label of selected item
A) b
(b: 71.6 nM, a: 164 nM)

[1] COc1ccc(Cl)cc1S(=O)(=O)N(c1cc(C(=O)Nc2ncc(CC(=O)O)s2)cc2c1OCO2)C(C)C
[2] COc1ccc(Cl)cc1S(=O)(=O)N(C)c1cc(C(=O)Nc2nc(CC(=O)O)cs2)cc2c1OCCO2
Q) // task: argmin of IC50 over [ 1 , 2 ] Reply with the label of the item you choose.
A) 2

----------
Target sequence: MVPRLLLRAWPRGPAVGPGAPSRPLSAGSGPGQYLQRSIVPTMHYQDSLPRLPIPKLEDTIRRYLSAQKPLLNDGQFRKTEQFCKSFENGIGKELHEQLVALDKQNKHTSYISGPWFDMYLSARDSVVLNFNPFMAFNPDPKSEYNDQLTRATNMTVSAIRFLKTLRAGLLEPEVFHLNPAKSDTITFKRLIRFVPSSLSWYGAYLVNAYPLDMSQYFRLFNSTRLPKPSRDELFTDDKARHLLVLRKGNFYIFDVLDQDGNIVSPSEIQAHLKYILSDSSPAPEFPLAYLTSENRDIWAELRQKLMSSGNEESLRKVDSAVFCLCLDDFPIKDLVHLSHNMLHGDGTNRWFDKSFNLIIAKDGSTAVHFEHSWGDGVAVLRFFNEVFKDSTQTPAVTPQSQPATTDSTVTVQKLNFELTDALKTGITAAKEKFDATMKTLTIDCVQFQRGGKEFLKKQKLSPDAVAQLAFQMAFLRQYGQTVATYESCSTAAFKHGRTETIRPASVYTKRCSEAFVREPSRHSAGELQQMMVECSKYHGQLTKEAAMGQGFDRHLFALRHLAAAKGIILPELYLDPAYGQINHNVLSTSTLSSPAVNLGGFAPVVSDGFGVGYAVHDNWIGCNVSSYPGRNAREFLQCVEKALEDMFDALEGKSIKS
test readout: IC50 (µM)

Some entries whose results are on file:
O=C1CN(c2cccc(-c3noc([C@H]4CCCCN4C(=O)COc4ccccc4)n3)c2)C(=O)N1	50.6
N#Cc1ccc(-c2csc([C@H]3CCCCN3C(=O)COc3ccccc3)n2)cc1	41.6
O=C(O)COc1cccc(-c2noc([C@H]3CCCCN3C(=O)COc3ccccc3)n2)c1	19.8
NC(=O)c1ccc(-c2csc([C@H]3CCCCN3C(=O)COc3ccccc3)n2)cc1	18.9
COc1ccc(Cl)cc1S(=O)(=O)N1CCOc2c(Cl)cc(C(=O)Nc3ccc(CC(=O)O)cc3)cc21	78.5

[1] O=C(COc1ccccc1)N1CCCC[C@@H]1c1noc(-c2ccc(-n3cnnn3)cc2)n1
[2] CN1CCN(c2cc3c(cc2Cl)CN(C(=O)[C@H]2CCCCN2C(=O)COc2ccccc2)C3)CC1
Q) Higher IC50 between 1 and 2 ? Reply with the label of the item you choose.
A) 1

----------
Target: Carnitine O-palmitoyltransferase 1, liver isoform (Homo sapiens, UniProt P50416)
Sequence (P50416 whole entry, canonical isoform): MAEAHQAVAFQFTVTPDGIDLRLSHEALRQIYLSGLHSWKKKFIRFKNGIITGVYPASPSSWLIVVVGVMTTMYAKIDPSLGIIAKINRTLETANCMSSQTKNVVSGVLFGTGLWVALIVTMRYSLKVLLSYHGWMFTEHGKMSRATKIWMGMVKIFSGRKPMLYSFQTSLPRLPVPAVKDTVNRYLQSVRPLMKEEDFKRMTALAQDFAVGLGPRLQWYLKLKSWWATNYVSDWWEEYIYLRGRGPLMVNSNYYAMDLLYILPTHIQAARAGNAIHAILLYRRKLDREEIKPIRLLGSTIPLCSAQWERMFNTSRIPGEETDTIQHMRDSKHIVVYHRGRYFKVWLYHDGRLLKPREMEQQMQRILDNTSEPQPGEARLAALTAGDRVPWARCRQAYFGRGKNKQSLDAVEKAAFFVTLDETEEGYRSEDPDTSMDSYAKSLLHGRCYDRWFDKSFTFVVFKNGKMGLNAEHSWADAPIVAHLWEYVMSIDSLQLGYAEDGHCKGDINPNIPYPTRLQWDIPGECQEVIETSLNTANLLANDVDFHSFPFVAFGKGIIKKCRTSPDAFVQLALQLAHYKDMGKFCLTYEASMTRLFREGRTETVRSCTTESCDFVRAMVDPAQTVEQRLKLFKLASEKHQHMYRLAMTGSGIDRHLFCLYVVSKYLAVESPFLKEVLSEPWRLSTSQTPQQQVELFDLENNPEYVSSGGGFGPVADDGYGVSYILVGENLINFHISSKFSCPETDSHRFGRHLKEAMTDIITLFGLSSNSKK
Experiment: SUPPLEMENTARY: Inhibition of Carnitine palmitoyltransferase 1, liver isoform
pIC50: −log10 of the molar value.
test readout: pIC50

The examples below pair each entry with its known result.
O=C(Nc1ccc(C(=O)O)c(F)c1)c1ccc2c(c1)N(S(=O)(=O)c1cccc(C(F)(F)F)c1)CCC2	6.90
O=C(COc1ccccc1)N1CCCC[C@@H]1c1noc(C2CCCCC2)n1	7.06

[1] Nc1ccc(-c2n[nH]c([C@H]3CCCCN3C(=O)COc3ccccc3)n2)cn1
[2] O=C1Cc2cc(-c3noc(C4C5CC5CN4C(=O)COc4ccccc4)n3)ccc2N1 (stereo unspecified)
Q) Return label of the item with the larger pIC50. Candidates: 1 , 2 . Write down the label attached to your selection.
A) 2

----------
Molecular target: Carnitine O-palmitoyltransferase 1, liver isoform (Homo sapiens)
Experiment: SUPPLEMENTARY: Inhibition of Carnitine palmitoyltransferase 1, liver isoform
test readout: IC50 (nM)

Example entries begin here.
O=C1COc2ccc(-c3noc([C@H]4CCCCN4C(=O)COc4ccccc4)n3)cc2N1	55.7
COc1ccc(Cl)cc1S(=O)(=O)N1C[C@@H](C)c2ccc(C(=O)Nc3ccc(C(=O)O)cc3)cc21	36.7
COc1ccc(Cl)cc1CN1C(=O)C2(CC2)c2ccc(C(=O)Nc3nc(CC(=O)O)cs3)cc21	91.1
O=C1CCC(=O)N1c1cccc(-c2n[nH]c([C@H]3CCCCN3C(=O)COc3ccccc3)n2)c1	127
O=C([C@H]1CCCCN1C(=O)COc1ccccc1)N1Cc2cc(F)c(N3CCOCC3)cc2C1	229

[A] O=C(COc1ccccc1)N1CCCC[C@@H]1c1nc(-c2ccc(F)c(F)c2)n[nH]1
[B] COc1ccc(Cl)cc1S(=O)(=O)N1CCOc2ccc(C(=O)Nc3ccc(CC(=O)O)cc3)cc21
[C] Cc1cc(-c2n[nH]c([C@H]3CCCCN3C(=O)COc3ccccc3)n2)n(C)n1
Q) Arrange items by their IC50 values in increasing order. Lab note: record answer as labels in requested order.
A) B, A, C
(B: 96.8 nM, A: 239 nM, C: 511 nM)

----------
Target: Carnitine O-palmitoyltransferase 1, liver isoform (Homo sapiens)
Experiment: SUPPLEMENTARY: Inhibition of Carnitine palmitoyltransferase 1, liver isoform
test readout: IC50 (µM)

Cn1cnc(Br)c1-c1noc([C@H]2CCCCN2C(=O)COc2ccccc2)n1	0.0793
COc1ccc(Cl)cc1S(=O)(=O)N1CCOc2ccc(C(=O)Nc3ncc(CC(=O)O)s3)cc21	0.0416

[1] O=C(COc1ccccc1)N1CCCC[C@@H]1c1nc(-c2ccc3[nH]ncc3c2)n[nH]1
[2] COc1ccc(Cl)cc1S(=O)(=O)N1CC(C)c2ccc(C(=O)Nc3ccc(C(=O)O)c(Cl)c3)cc21 (stereo not given)
[3] CCC(=O)Nc1cccc(-c2n[nH]c([C@H]3CCCCN3C(=O)COc3ccccc3)n2)c1
Q) Endpoint returns the given compounds ordered by ascending IC50. Provide the ranking by listing each label in its place in the requested order.
A) 3, 1, 2
(3: 0.0356 µM, 1: 0.0874 µM, 2: 0.19 µM)

----------
Biological target: Carnitine O-palmitoyltransferase 1, liver isoform (Rattus norvegicus, UniProt P32198)
Assay: SUPPLEMENTARY: Inhibition of Carnitine palmitoyltransferase 1, liver isoform
test readout: IC50 (nM)

NS(=O)(=O)c1cccc(-c2noc([C@H]3CCCCN3C(=O)COc3ccccc3)n2)c1	205

[I] CCCN(c1cc(C(=O)Nc2ccn(CC(=O)O)n2)cc2c1OCO2)S(=O)(=O)c1cc(Cl)ccc1OC
[II] O=C(O)c1ccc(NC(=O)c2ccc3c(c2)N(S(=O)(=O)c2cccc(Cl)c2)CCO3)cc1
[III] CCOC(=O)c1cncc(-c2noc([C@H]3CCCCN3C(=O)COc3ccccc3)n2)c1
[IV] CCn1c(C)nc(Cl)c1-c1noc([C@H]2CCCCN2C(=O)COc2ccccc2)n1
[V] COc1ccc(Cl)cc1S(=O)(=O)c1cn(CCCC(=O)O)c2ccc(C(=O)Nc3ccccc3)cc12
Q) Highest IC50 first, then in falling order down to the smallest. Form entry: labels listed in requested order.
A) III, I, IV, II, V
(III: 399 nM, I: 252 nM, IV: 164 nM, II: 89.8 nM, V: 10.1 nM)
